- System: UACC-62 melanoma
- experiment_notes: NCI tumour cell line growth inhibition, 48 h
Where a SMILES comes first, the peptide text is derived from it. [ ]: non-standard residue; d: D form. Phe(4-NO2) = N[CH](Cc1ccc([N+](=O)[O-])cc1)C(=O)O
Would you kindly list TGI for each of these compounds?

What does the record list as TGI for C/C(=N\NC(=S)N(C)C)c1nc2ncccc2[nH]1 ?
2.7 µM

What do we get for O[C@H]1[C@H](O)[C@@H](O)[C@@]2(O)CC[C@@H]1N2 ?
> 100 µM

What do we get for Cc1ccc2c(c1)c(Sc1ccc(C(=O)NO)cc1)c1n2CN(C)CC1 ?
3.25 µM

What do we get for O=C(Nc1ccc(-n2cc(-c3ccncc3)c(-c3ccc(O)c(Cl)c3)n2)cc1)Nc1ccc(Cl)c(C(F)(F)F)c1 ?
14.8 µM

What do we get for CC(NC(=O)C(Cc1ccc([N+](=O)[O-])cc1)NC(=O)C(N)CCCCN)C(=O)NC(Cc1ccc([N+](=O)[O-])cc1)C(N)=O (stereo not drawn) (H-K[Phe(4-NO2)]A[Phe(4-NO2)]-NH2; configuration not given here) ?
> 100 µM

What do we get for COC(=O)[C@H](Cc1c[nH]c2ccccc12)NP(=O)(O)OC[C@H]1O[C@@H](n2cc(C)c(=O)[nH]c2=O)C[C@@H]1N=[N+]=[N-] ?
> 100 µM

What do we get for N#Cc1ccc(N2CCOCC2)cc1 ?
> 100 µM

What do we get for CCOC(=O)C1C(C)C2(C#N)C(=N)OC1(C)C2(C#N)C#N (stereo not drawn) ?
> 100 µM

###

Would you kindly list TGI for each of these compounds?
- System: HCT-116 colon
- experiment_notes: NCI tumour cell line growth inhibition, 48 h

What does the record list as TGI for CCCCCCCCCCCC(=O)N1CCN(C(C)=O)CC1 ?
63.4 µM

What do we get for C=C(C)[C@@]1(O)CCCC[C@@H]1CC(Sc1ccccc1)Sc1ccccc1 ?
30.2 µM

What do we get for CC1=NN(c2ccc(S(=O)(=O)O)cc2)C(=O)/C1=C/c1ccc(Cl)cc1 ?
> 100 µM

What do we get for CC1(C)CC(=O)C2=C(C1)NC1=C(C2)C(=O)CC(C)(C)C1 ?
> 100 µM

What do we get for O=C(c1nc2ccccc2[nH]c1=O)C(O)c1ccco1 (stereo unspecified) ?
> 100 µM

What do we get for CCC(O)C1Cc2c(C)cc3c(c2O1)C(=O)c1ccccc1C3=O (stereo unspecified) ?
> 100 µM

###

- Test system: DU-145 prostate
- experiment_notes: NCI tumour cell line growth inhibition, 48 h
parameter_measured: TGI

What does the record list as TGI for CCSc1cc2c(cc1O)CC[C@@H]1[C@@H]2CC[C@]2(C)[C@@H](O)CC[C@@H]12 ?
74.9 µM

What do we get for C[C@@H](NC(=O)/C(C#N)=C/c1ccc([N+](=O)[O-])cc1)c1ccccc1 ?
4.33 µM

What do we get for OCCCNc1ncnc2[nH]ncc12 ?
> 100 µM

What do we get for CCOC(=O)Nc1nc2ccc(Br)cc2s1 ?
> 50 µM

What do we get for CCOC(=O)C1C(C)C2(C#N)C(=N)OC1(C)C2(C#N)C#N (configuration not stated) ?
> 100 µM

What do we get for CCN(CC)C1CCC(C2c3cc4c(cc3OC(N3CCOCC3)C2C)OCO4)CC1 (configuration not stated) ?
> 100 µM

What do we get for CNC(=O)NCCN1CC2CCC(CC2)C1 ?
> 10 µM

###

- Tested on: PC-3 prostate
- experiment_notes: NCI tumour cell line growth inhibition, 48 h
parameter_measured: GI50

What does the record list as GI50 for C#CCN(Cc1nc2cc(C(F)(F)F)ccc2nc1-c1ccccc1)c1ccc(C)cc1 ?
> 62.6 µM

What do we get for COc1ccc2c(c1)CC[C@@H]1[C@@H]2CC[C@]2(C)c3c(cc(C(=O)O)c4sccc34)C[C@@H]12 ?
10.5 µM

What do we get for CC(=O)Nc1c(I)c(NC(C)=O)c(I)c(C(=O)O)c1I ?
> 100 µM

What do we get for CN1CCC2(CC1)NC(=O)c1c(c3ccc(Cl)c(Cl)c3n1C)C2C#N (stereo not given) ?
5.7 µM

What do we get for COc1ccc(Cn2cc3c(c2-c2ccccc2)CCc2cnoc2-3)cc1OC ?
3.08 µM

What do we get for COc1ccc2c(c1)oc(=O)c1cc(OC)ccc12 ?
> 100 µM

What do we get for N/C(=N/N=C/c1ccccc1)N/N=C\c1ccccc1 ?
6.21 µM

What do we get for CC(C)(C)[Si](C)(C)OC1[C@@H](O[Si](C)(C)C(C)(C)C)[C@@H](CNC(=O)NC(=O)CF)O[C@H]1n1cnc2c(NC(=O)Nc3ccccc3)ncnc21 (stereo not given in full) ?
2.19 µM

What do we get for N#C[Se]CCN1C(=O)C2C(C1=O)[C@H]1C=C[C@@H]2S1 (stereo not given in full) ?
2.11 µM

What do we get for CCCCCCCCC/C(=N\NC(=O)c1ccncc1)c1ccc(O)c(O)c1O ?
1.6 µM

###

- Tested on: NCI/ADR-RES ovarian
- experiment_notes: NCI tumour cell line growth inhibition, 48 h; in the data active = GI50 below about 0.43 µM; inactive = the rest
Result category, one only: 1 = active, -1 = inactive

Which result was noted for this molecule in the test: CCN1C(=O)N(CC)C2C1NN=c1s/c(=C\c3ccco3)c(=O)n12 (stereo not drawn)
1

What do we get for CCOC(=O)Nc1nc2ccc(Br)cc2s1 ?
-1

What do we get for O=C(Nc1ccc(-n2cc(-c3ccncc3)c(-c3ccc(O)c(Cl)c3)n2)cc1)Nc1ccc(Cl)c(C(F)(F)F)c1 ?
-1

What do we get for N#Cc1c(N2CCOCC2)nc(=S)[nH]c1-c1ccccc1 ?
-1

What do we get for C[C@]12CC[C@@H]3c4cc(OC(F)F)c(OS(N)(=O)=O)cc4CC[C@H]3[C@@H]1CC[C@@H]2OS(N)(=O)=O ?
-1

What do we get for COc1ccc2c(c1)CC[C@@H]1[C@@H]2CC[C@]2(C)c3c(cc(C(=O)O)c4sccc34)C[C@@H]12 ?
-1

What do we get for S=C(NCCNC(=S)[S][Sn]([c]1ccccc1)([c]1ccccc1)[c]1ccccc1)[S][Sn]([c]1ccccc1)([c]1ccccc1)[c]1ccccc1 ?
1

What do we get for COc1cc(/C(=C2/O[C@@H]([C@H]3COC(C)(C)O3)[C@H]3OC(C)(C)O[C@@H]23)c2ccc3ccccc3c2)cc(OC)c1OC ?
-1

###

- System: MDA-MB-435
- experiment_notes: NCI tumour cell line growth inhibition, 48 h
Would you kindly list TGI for each of these molecules?
Return type: number; implicit unit µM.

What does the record list as TGI for CN1CCC2(CC1)NC(=O)c1c(c3ccc(Cl)c(Cl)c3n1C)C2C#N (stereo unspecified) ?
6.58

What do we get for CCCCCCCCCCCC(=O)N1CCN(C(C)=O)CC1 ?
40.9

What do we get for S=C(NCCNC(=S)[S][Sn]([c]1ccccc1)([c]1ccccc1)[c]1ccccc1)[S][Sn]([c]1ccccc1)([c]1ccccc1)[c]1ccccc1 ?
0.0559

What do we get for O=[N+]([O-])c1ccc(C2=Nn3c(nnc3-c3ccc(Cl)cc3)SC2)o1 ?
4.39

What do we get for Cc1ccc([N+](=O)[O-])cc1S(=O)(=O)Nc1ccc(C2=NOC(c3cccs3)C2)cc1 (stereo unspecified) ?
10.4

What do we get for [Cl][Hg][c]1ccc(Cl)s1 ?
5.7

What do we get for N=N/C(=C\c1c(O)[nH]c2ccccc12)c1ccccc1 ?
20.3

###

Would you kindly list TGI for each of these compounds?
- Tested on: OVCAR-3 ovarian
- experiment_notes: NCI tumour cell line growth inhibition, 48 h

What does the record list as TGI for CCCCCCCCCCCCSC1=C(Cl)C(=O)C(OC)=C(OC)C1=O ?
18.3 µM

What do we get for COc1ccc(Nc2cc(C)nc(NCc3ccccc3)n2)cc1 ?
24.5 µM

What do we get for CC(C)CC(=O)NC(C(=O)NC(C(=O)NC(CC(C)C)C(O)CC(=O)NC(C)C(=O)NC(CC(C)C)C(O)CC(=O)O)C(C)C)C(C)C (stereo not given) ?
> 100 µM

What do we get for O=C1C=CC(=O)c2c1ccc1c3ccccc3n(-c3ccccc3)c21 ?
21.9 µM

What do we get for CC1(Br)CC2OC3(Br)C=CC(C)(O)C2(CC1=O)C3(C)C (stereo not given) ?
> 100 µM

What do we get for CC1(C)C2CC(O)C1CCC2=O (stereo not given) ?
> 100 µM

What do we get for O=C(c1nc2ccccc2[nH]c1=O)C(O)c1ccco1 (stereo not given) ?
> 100 µM

What do we get for COc1cc(/C=N\c2nc(-c3ccc(NS(=O)(=O)c4ccc(Cl)c(OC)c4)cc3)cs2)ccc1O ?
> 100 µM

What do we get for C[Si](C)(N[Si](C)(C)OCCc1ccccc1)OCCc1ccccc1 ?
> 100 µM

What do we get for O=C(NCc1cccnc1)C1COc2cc(-c3cc(=O)c4ccccc4o3)ccc2O1 (stereo not given) ?
> 100 µM

What do we get for N#Cc1c(N)n2c(nc1=Nc1ccc(Cl)cc1)sc1cc(Cl)ccc12 ?
> 100 µM

What do we get for N#CCCCCCOCCOCCOCCOCCOCCCCCC#N ?
> 100 µM

What do we get for CC(C)(C)[Si](C)(C)OCC1OC(n2cc(I)c(=O)[nH]c2=O)C(O[Si](C)(C)C(C)(C)C)C1O[Si](C)(C)C(C)(C)C (stereo not given) ?
28 µM

What do we get for COC(=O)c1ccccc1CC(Cc1ccc2c(c1)CCC2)C(=O)OC (stereo not given) ?
> 100 µM

What do we get for CC(C)(C)[Si](C)(C)OC1[C@@H](O[Si](C)(C)C(C)(C)C)[C@@H](CNC(=O)NC(=O)CF)O[C@H]1n1cnc2c(NC(=O)Nc3ccccc3)ncnc21 (stereo not given in full) ?
23.4 µM

What do we get for COc1ccc(C(O)(c2ccccc2)c2nccc3ccccc23)cc1 (stereo not given) ?
6.32 µM

What do we get for Cc1c(Cl)nc(Cl)nc1Cl ?
3.25 µM

What do we get for Cc1ccc(NC(=O)c2cc3ccccc3c(N=Nc3cc(S(=O)(=O)O)ccc3O)c2O)c(C)c1 ?
> 100 µM

What do we get for COc1cc(O)c2c(c1)O[C@@H]1OCC[C@H]21 ?
> 100 µM

What do we get for OCCCNc1ncnc2[nH]ncc12 ?
> 100 µM

What do we get for CC(=NNC(=S)Nc1cccc(C)c1)c1cccc(C(C)=NNC(=S)Nc2cccc(C)c2)n1 ?
26.8 µM

What do we get for COc1cc(C(=O)N2CCN(c3ccccc3)CC2)c2ccccc2n1 ?
0.0687 µM

What do we get for O=C(O)CCc1nc2ccccc2[nH]1 ?
> 100 µM

What do we get for O=c1c2ccccc2nc(/C=C(\O)c2ccncc2)n1-c1ccc(Cl)cc1 ?
> 100 µM

What do we get for CC1CC/C(=C\c2ccc(N(C)C)cc2)C2=C1C(c1ccc(N(C)C)cc1)NC(=S)N2 (stereo not given) ?
> 100 µM

What do we get for CCOC(=O)C(C(=O)OCC)c1ccc([N+](=O)[O-])o1 ?
15.8 µM

What do we get for CCOC(=O)Cn1c(=O)c2nc(SC)sc2n(-c2ccccc2)c1=S ?
97.7 µM

What do we get for O=C(OC1CCC2OOC1O2)c1ccc([N+](=O)[O-])cc1 (stereo not given) ?
> 100 µM

What do we get for Cc1ccc(C(c2c(O)c3ccccc3n(-c3ccccc3)c2=O)c2c(O)c3ccccc3n(-c3ccccc3)c2=O)cc1 ?
> 100 µM

What do we get for O=c1[nH]c(=O)c2cc3cc(C4CC(O)C(CO)O4)ccc3cc2[nH]1 (stereo not given) ?
> 100 µM

What do we get for O=C(NC(=O)c1ccccc1[N+](=O)[O-])Nc1ccc(Oc2ncc(Cl)cn2)c([N+](=O)[O-])c1 ?
> 7.67 µM

What do we get for COc1ccc2[nH]cc(C(=O)C(=O)NC34CC5CC(CC(C5)C3)C4)c2c1 ?
> 49.5 µM

What do we get for O=C1CC2(CCC3=C(O2)c2ccccc2NC(=O)C3)C(=O)c2ccccc2N1 (stereo not given) ?
> 100 µM

What do we get for OC[P+](CO)(CO)C12CC3CC(CC(C3)C1)C2 ?
> 100 µM

What do we get for COC(=O)C1=COC(C)C2CN3CCc4c([nH]c5cc(OC)c(OC)cc45)C3CC12 (stereo not given) ?
> 100 µM

What do we get for COc1cc(/C(=C2/O[C@@H]([C@H]3COC(C)(C)O3)[C@H]3OC(C)(C)O[C@@H]23)c2ccc3ccccc3c2)cc(OC)c1OC ?
5.67 µM

What do we get for N#CCCN(CCC#N)c1ccc(/C=C(\NC(=O)c2cc([N+](=O)[O-])ccc2Cl)C(=O)Nc2ccccc2)cc1 ?
> 100 µM

What do we get for Cn1cc(C2=C(c3c4n(c5ccccc35)CCC(CN)C4)C(=O)NC2=O)c2ccccc21 (stereo not given) ?
7.63 µM

What do we get for COc1ccc(NC(=O)CC/C(CC(=O)c2ccco2)=N/NC(N)=S)cc1 ?
> 100 µM

What do we get for COC(=O)C1=COC(OC2OC(CO)C(O)C(O)C2O)C2C3CN4CCc5c([nH]c6ccccc56)C4(CC12)O3 (stereo not given) ?
> 100 µM
